Biological target: NAD-dependent protein deacylase sirtuin-6 (Homo sapiens)
Sequence (Q8N6T7 whole entry): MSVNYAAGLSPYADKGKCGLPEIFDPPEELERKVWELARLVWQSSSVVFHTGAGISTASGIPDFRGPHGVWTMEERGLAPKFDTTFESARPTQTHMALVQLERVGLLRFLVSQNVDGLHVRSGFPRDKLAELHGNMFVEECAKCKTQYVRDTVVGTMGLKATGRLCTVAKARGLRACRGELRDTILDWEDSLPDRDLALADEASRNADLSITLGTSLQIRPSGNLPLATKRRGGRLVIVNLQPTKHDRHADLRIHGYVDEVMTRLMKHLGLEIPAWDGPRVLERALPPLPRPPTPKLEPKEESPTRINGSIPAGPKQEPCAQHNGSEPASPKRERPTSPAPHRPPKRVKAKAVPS
Assay: Inhibition of SIRT6 in human BxPC-3 cells assessed as increase in H3K9 acetylation by immunoblotting assay relative to control
Format: cell-based
EXPERIMENTAL READOUT: fold increase in H3K9 acetylation (fold)

Worked set:
GIVEN SMILES	MEASURED ON	U	fold increase in H3K9 acetylation
O=c1[nH]c(=O)c2cc(S(=O)(=O)Nc3ccc(Cn4ccnc4)cc3)ccc2[nH]1	NAD-dependent protein deacylase sirtuin-6 (Homo sapiens)	fold	1.5
Cn1c(=O)c2cc(S(=O)(=O)Nc3ccc(Cc4ccncc4)cc3)ccc2n(C)c1=O	NAD-dependent protein deacylase sirtuin-6 (Homo sapiens)	fold	1.6

1: O=c1[nH]c(=O)c2cc(S(=O)(=O)Nc3cccc(CCc4ccncc4)c3)ccc2[nH]1
2: O=c1[nH]c(=O)c2cc(S(=O)(=O)Nc3ccc(Oc4cccnc4)cc3)ccc2[nH]1
Prompt: Which record would sort first by descending fold increase in H3K9 acetylation, 1 or 2 ? Could you answer with the label of the item you picked?
Response: 2
(2: 2.2 fold, 1: 1.4 fold)
